Test system: BDF1 mice, B16 melanoma ip, median survival T/C
experimental.details: NCI In Vivo Anticancer Drug Screen. Data for tumor model B16 Melanoma (intraperitoneal) in B6D2F1 (BDF1) mice
condition: endpoint: median survival time; dose: 37.5 mg/kg/injection; schedule: Q01DX009 (ip); vehicle: saline; higher = longer survival
Procedure: The antitumor activity of compounds was measured in mice bearing transplantable tumors. Survival or tumor size were measured and the results are expressed as the measurement made in the treated group (T) divided by the measurement made in the vehicle treated control group (C). The tumor model used in this assay is B16 Melanoma (intraperitoneal) in B6D2F1 (BDF1) mice
Inconclusive results and toxic doses are left out.
Measured T/C accompanies every entry in the list below.

Example entries begin here.
O=C[C@@H](CO)O[C@H](C=O)n1cnc2c(=O)[nH]cnc21    95 % of control
Nc1cc2[nH]cnc2c(=O)[nH]1    102 % of control

According to the records, this compound OCCN1CCN(CCCN2c3ccccc3Sc3cccnc32)CC1 displays T/C of 105 % of control

For record CCC(CCCN(CC)CCc1ccccc1)OC(=O)c1cc(OC)c(OC)c(OC)c1 (stereo not given) the listed T/C is 100 % of control

get_value(item= CN(C)CCC[N+]1([O-])c2ccccc2CCc2ccccc21 , readout=T/C) returns 100 % of control

---

Tested on: BDF1 mice, B16 melanoma ip, median survival T/C
experimental.details: NCI In Vivo Anticancer Drug Screen. Data for tumor model B16 Melanoma (intraperitoneal) in B6D2F1 (BDF1) mice
condition: endpoint: median survival time; dose: 12.5 mg/kg/injection; schedule: Q04DX003 (ip); vehicle: Klucel (hydroxypropylcellulose) (HPC); higher = longer survival
Toxic doses and inconclusive results are not listed.
readout.type: T/C

Consider the following illustrative entries.
O=C1c2ccccc2C(Cl)=C(Cl)C1(Cl)Cl    87 % of control
CN(C)c1ccc2c(c1)C(Br)c1ccccc1-2 (centres undefined)    105 % of control
O=[N+]([O-])c1ccc([S][Pb]([c]2ccccc2)([c]2ccccc2)[c]2ccccc2)cc1    97 % of control

// field: T/C; key: C[N+](C)(C)CCOc1ccc(Cl)cc1 ; value = 105 % of control

---

T/C overview
System: BDF1 mice, B16 melanoma ip, median survival T/C
experimental.details: NCI In Vivo Anticancer Drug Screen. Data for tumor model B16 Melanoma (intraperitoneal) in B6D2F1 (BDF1) mice
condition: endpoint: median survival time; dose: 5.0 mg/kg/injection; schedule: Q01DX009 (ip); vehicle: saline with Tween-80; higher = longer survival
Toxic doses and inconclusive results are not listed.

So for CC1=CC(O)C(O)C2(C)C1CC(=O)C13COC4OC(CC1C4=O)C(O)C32 (centres undefined) , the logged T/C turned out to be 90 % of control

---

Each entry below carries its reported T/C.
Tested on: BDF1 mice, B16 melanoma ip, median survival T/C
experimental.details: NCI In Vivo Anticancer Drug Screen. Data for tumor model B16 Melanoma (intraperitoneal) in B6D2F1 (BDF1) mice
condition: endpoint: median survival time; dose: 200.0 mg/kg/injection; schedule: Q04DX003 (ip); vehicle: Klucel (hydroxypropylcellulose) (HPC); higher = longer survival
Inconclusive results and toxic doses are left out.

Examples with their reported T/C follow.
Cc1cc(=O)n2c3c(cc(C#N)cc13)OC2    95 % of control
O=C(Nc1ccccc1Cl)Oc1ccccc1Cc1ccccc1    106 % of control
Cc1ccc2[nH]c(=O)oc(=O)c2c1    93 % of control
Cc1cccc(C)c1NC(=O)Nc1cccc(Cl)c1    100 % of control
COc1cc(C(=O)O)c(Br)cc1C    97 % of control

get_value(item= CCOC(=O)C1CCCN(S(=O)(=O)c2ccc(C)cc2)c2ccccc2C1=O (configuration not stated) , readout=T/C) returns 88 % of control

Documented T/C of Nc1nc(Nc2ccccc2)nc(C(=O)O)n1 : 97 % of control

---

Tested on: BDF1 mice, B16 melanoma ip, median survival T/C
experimental.details: NCI In Vivo Anticancer Drug Screen. Data for tumor model B16 Melanoma (intraperitoneal) in B6D2F1 (BDF1) mice
condition: endpoint: median survival time; dose: 50.0 mg/kg/injection; schedule: Q01DX009 (ip); vehicle: Klucel (hydroxypropylcellulose) (HPC); higher = longer survival
Inconclusive results and toxic doses are left out.
readout.type: T/C

COc1ccc(N2CSC(=S)N(c3ccc(OC)cc3)C2)cc1    94 % of control
O=Nc1c(O)ccc2ccccc12    93 % of control
OC(CCN1CCCCC1)(c1ccccc1)C1CCCC1 (stereo not given)    100 % of control
O=C(CN1C(=O)c2ccccc2C1=O)OC(c1ccccc1)c1ccccc1    90 % of control
N#CCCN(C(=O)COc1ccc(Cl)cc1Cl)C1CCCCC1    98 % of control

Record summary for CCCC1(C)COB(c2ccc(C)cc2)OC1 : reported T/C = 90 % of control

The reported value for O=C(O)C1CCCCC1C(=O)Nc1cccc(C(F)(F)F)c1 (stereo not given) in terms of T/C is 113 % of control

compound CN(Cc1cnc2nc(N)nc(N)c2n1)c1c(Cl)cc(C(=O)NC(CCC(=O)O)C(=O)O)cc1Cl (stereo not given) , T/C observed: 111 % of control

The recorded T/C for Nc1n[nH]c(=O)[nH]1 is 98 % of control

Per the record, CCOc1cc(N)ccc1C has T/C of 93 % of control

According to the records, this compound COc1cc(C(=O)N=Nc2c(O)[nH]c3ccc(Br)cc23)cc(OC)c1OC displays T/C of 109 % of control

Sure, the documented T/C for CC(=O)C(Cl)C(=O)c1c(C)[nH]n(-c2ccccc2)c1=O (stereo not given) is 98 % of control

For record CNC(=O)NCc1ccc(C(=O)NC(C)C)cc1 the listed T/C is 98 % of control

Per the records, this compound ( C[C@]12CC[C@@H]3c4ccc(O)cc4CC[C@H]3[C@@H]1CC[C@@H]2O ) has T/C equal to 97 % of control

T/C reading for O=C(Cl)C1(Br)CC2c3ccccc3C1([N+](=O)[O-])c1ccccc12 (stereo not given) : 97 % of control

Input O=C1CNC(c2ccccc2)c2cc(Cl)ccc2N1 (stereo not given) . Output T/C: 107 % of control

---

Test system: BDF1 mice, B16 melanoma ip, median survival T/C
experimental.details: NCI In Vivo Anticancer Drug Screen. Data for tumor model B16 Melanoma (intraperitoneal) in B6D2F1 (BDF1) mice
condition: endpoint: median survival time; dose: 20.0 mg/kg/injection; schedule: Q01DX009 (ip); vehicle: Klucel (hydroxypropylcellulose) (HPC); higher = longer survival
Toxic doses and inconclusive results are not listed.
molecules and their reported T/C

Worked cases, answers included:
CC1(C)CC[C@H](C2=CC(=O)c3c(O)ccc(O)c3C2=O)O1    93 % of control
CC[PH+](CC)CC[S-].CC[PH+](CC)CC[S-].[Au+].[Au+]    112 % of control
C[C@]12CC[C@H](O)C[C@@]1(O)CC[C@@H]1[C@@H]2CC[C@]2(C)[C@@H](c3ccc(=O)oc3)CC[C@]12O    94 % of control

Measured on BDF1 mice, B16 melanoma ip, median survival T/C, O=[N+]([O-])c1cc([N+](=O)[O-])c(Br)cc1Cl has a documented T/C of 94 % of control

---

Test system: BDF1 mice, B16 melanoma ip, median survival T/C
experimental.details: NCI In Vivo Anticancer Drug Screen. Data for tumor model B16 Melanoma (intraperitoneal) in B6D2F1 (BDF1) mice
condition: endpoint: median survival time; dose: 50.0 mg/kg/injection; schedule: Q01DX009 (ip); vehicle: water; higher = longer survival
Toxic doses and inconclusive results are not listed.
readout.type: T/C

COc1ccc(S(=O)(=O)NC(=S)S)cc1    100 % of control
C/C=C/C1=CC(=O)C(O)C1O (centres undefined)    117 % of control
NC(=O)Oc1cccc(OC(N)=O)c1    93 % of control

Proceeding to the next compound to report its T/C.
// COc1cc2ccc3cnccc3c2cc1OC : T/C value = 91 % of control

---

// T/C lookup, one value per entry
Test system: BDF1 mice, B16 melanoma ip, median survival T/C
experimental.details: NCI In Vivo Anticancer Drug Screen. Data for tumor model B16 Melanoma (intraperitoneal) in B6D2F1 (BDF1) mice
condition: endpoint: median survival time; dose: 400.0 mg/kg/injection; schedule: Q01DX009 (ip); vehicle: saline with Tween-80; higher = longer survival
Toxic doses and inconclusive results are not listed.

Please review the following examples before continuing.
O=CNC(Cc1cnc[nH]1)C(=O)O (configuration not stated)    100 % of control
CC(=O)OCC1OC(n2ncc(=O)[nH]c2=O)C(OC(C)=O)C1OC(C)=O (configuration not stated)    102 % of control
O=c1c(O)c(-c2ccccc2)oc2ccccc12    91 % of control

Memo: Nn1c(=O)[nH][nH]c1=O , reported T/C: 105 % of control

Record c1cncc(C2OCCO2)c1 . Reported T/C: 89 % of control

Field T/C (entry CCOc1ncc([N+](=O)[O-])c(OCC)n1 ) reads 95 % of control

Reported T/C of O=CNNC=O : 90 % of control

So, C=C1OC(=O)OC1(C)CC(OC)OC (configuration not stated) ? Its T/C was 108 % of control

Field T/C (entry CC(CP(=O)(c1ccccc1)c1ccccc1)C(=O)O (configuration not stated) ) reads 90 % of control

Measured T/C, O=C(Cc1ccccc1)NC/C=N/O : 100 % of control

Given item O=C(NC(CO)C(=O)OCc1ccccc1)OCc1ccccc1 (configuration not stated) , the value recorded as its T/C is 105 % of control

response.value for CCOC(=O)C(C(=O)OCC)c1cc(NC(=O)c2ccccc2)ccc1NC(=O)c1ccccc1 (field: T/C) = 89 % of control

The value of T/C measured for the molecule O=C(/C=C\c1ccccc1)/C=C/c1ccccc1 turned out to be 92 % of control

The measured T/C associated with Cc1ncc([N+](=O)[O-])n1CCSC(N)=O reads 92 % of control

T/C in this record for CCc1cccc[n+]1[O-] : 96 % of control

Data point: NC(Cc1ccc(O)cc1)C(=O)OCc1ccccc1 (configuration not stated) ; T/C = 98 % of control

T/C for Nc1nc(N)nc(-c2ccc([N+](=O)[O-])o2)n1 is 90 % of control

# T/C of Cn1nnnc1N/N=C/c1ccccc1 = 90 % of control

The reported T/C of the molecule CN(C(N)=O)C1CCCC1 was 93 % of control

// field: T/C; key: C[N+](C)(C)CCOC(=O)c1ccccc1 ; value = 91 % of control

Entry under test: CCCCCCCCCCCCCCCCCS(=O)S(=O)O (configuration not stated) . Its T/C was 95 % of control

Please fill in: T/C reported for COc1cc(C(=O)N2CCN(c3ccccc3)CC2)c2ccccc2n1 = 124 % of control
